System: Coprococcus comes
assay-overview: growth AUC relative to DMSO control (median of replicates) (fraction); higher = more growth (less inhibition), active = hit call of the paper
condition-description: 20 µM; 24 h
Criterion: growth AUC meeting or surpassing 1. Met: Fulfilled. Not met: Not fulfilled.

# compound, answer-label
rows = [
    ("CN1COCN(Cc2cnc(Cl)s2)/C1=N/[N+](=O)[O-]", "Not fulfilled"),
    ("O=C(Nc1ccccc1)Nc1ccnc(Cl)c1", "Fulfilled"),
    ("CCOC1Oc2ccc(OS(C)(=O)=O)cc2C1(C)C (stereo not given)", "Not fulfilled"),
    ("CC(C)(COCc1cccc(Oc2ccccc2)c1)c1ccc(OC(F)(F)Br)cc1", "Not fulfilled"),
]

----------
System: Bacteroides stercoris
assay-overview: growth AUC relative to DMSO control (median of replicates) (fraction); higher = more growth (less inhibition), active = hit call of the paper
condition-description: 20 µM; 24 h
Respond with T for growth AUC values of 1 and above, F for values below.

# molecule, target-under-test, answer-label
records = [
    ("O=[N+]([O-])c1ccc(Oc2ccc(Cl)cc2Cl)cc1", "Bacteroides stercoris", "T"),
    ("CON(C)C(=O)Nc1ccc(Cl)c(Cl)c1", "Bacteroides stercoris", "F"),
    ("CC(=O)CC(c1ccc(Cl)cc1)c1c(O)c2ccccc2oc1=O (stereo not drawn)", "Bacteroides stercoris", "F"),
    ("CCOC(=O)CCN(Cc1ccccc1)SN(C)C(=O)O/N=C(/C)SC", "Bacteroides stercoris", "T"),
    ("CCOP(=O)(OCC)O/C(=C/Br)c1ccc(Cl)cc1Cl", "Bacteroides stercoris", "F"),
    ("O=C1C2(Cl)C3(Cl)C4(Cl)C(Cl)(Cl)C5(Cl)C3(Cl)C1(Cl)C5(Cl)C24Cl (stereo not drawn)", "Bacteroides stercoris", "F"),
    ("CCNc1nc(Cl)nc(NC(C)C)n1", "Bacteroides stercoris", "F"),
    ("CCc1cccc(C)c1N(C(=O)CCl)[C@@H](C)COC", "Bacteroides stercoris", "T"),
    ("COC(=O)c1ccccc1S(=O)(=O)NC(=O)Nc1nc(C)nc(OC)n1", "Bacteroides stercoris", "F"),
    ("COCC(=O)N(c1c(C)cccc1C)C(C)C(=O)OC (stereo not drawn)", "Bacteroides stercoris", "T"),
    ("COc1nc(C)nc(NC(=O)NS(=O)(=O)c2ccccc2Cl)n1", "Bacteroides stercoris", "F"),
    ("C[N+](C)(C)CCCl.[Cl-]", "Bacteroides stercoris", "T"),
    ("CC(C)C(C(=O)OC(C#N)c1cccc(Oc2ccccc2)c1)c1ccc(Cl)cc1 (stereo not drawn)", "Bacteroides stercoris", "T"),
    ("CC(C)NC(=O)N1CC(=O)N(c2cc(Cl)cc(Cl)c2)C1=O", "Bacteroides stercoris", "T"),
    ("O=P(Oc1ccccc1)(Oc1ccccc1)Oc1ccccc1", "Bacteroides stercoris", "F"),
    ("O=P(OC(CCl)CCl)(OC(CCl)CCl)OC(CCl)CCl", "Bacteroides stercoris", "T"),
    ("CS(=O)(=O)c1ccc(C(=O)C2C(=O)CCCC2=O)c(Cl)c1", "Bacteroides stercoris", "T"),
    ("CN(C)C(=O)C(c1ccccc1)c1ccccc1", "Bacteroides stercoris", "F"),
    ("CS(=O)(=O)NC(=O)c1cc(Oc2ccc(C(F)(F)F)cc2Cl)ccc1[N+](=O)[O-]", "Bacteroides stercoris", "F"),
    ("O=c1oc2ccccc2c(O)c1C1CC(c2ccc(OCc3ccc(C(F)(F)F)cc3)cc2)Cc2ccccc21 (mixture of isomers)", "Bacteroides stercoris", "F"),
    ("COC(=O)c1ccccc1S(=O)(=O)NC(=O)N(C)c1nc(C)nc(OC)n1", "Bacteroides stercoris", "T"),
    ("CCOC(=O)c1ccccc1S(=O)(=O)NC(=O)Nc1nc(Cl)cc(OC)n1", "Bacteroides stercoris", "F"),
    ("CCC(C)c1cc([N+](=O)[O-])cc([N+](=O)[O-])c1OC(=O)C=C(C)C (stereo not drawn)", "Bacteroides stercoris", "F"),
    ("CC1(C)[C@H](C(=O)O[C@H](C#N)c2cccc(Oc3ccccc3)c2)[C@@H]1/C=C\\C(=O)OC(C(F)(F)F)C(F)(F)F", "Bacteroides stercoris", "F"),
    ("C/C(=N/Nc1nc(C)cc(C)n1)c1ccccc1C", "Bacteroides stercoris", "T"),
    ("CNC(=O)Oc1ccccc1C(C)C", "Bacteroides stercoris", "T"),
    ("ClC(Cl)=C(c1ccc(Cl)cc1)c1ccc(Cl)cc1", "Bacteroides stercoris", "T"),
    ("Cc1ccc(-c2c(Cl)nc(C#N)n2S(=O)(=O)N(C)C)cc1", "Bacteroides stercoris", "F"),
    ("COc1cc(C)c(C(=O)c2c(OC)ccc(Br)c2C)c(OC)c1OC", "Bacteroides stercoris", "F"),
    ("CC(C)CC(C)c1sccc1NC(=O)c1cn(C)nc1C(F)(F)F (stereo not drawn)", "Bacteroides stercoris", "T"),
]

----------
Test system: Bacteroides thetaiotaomicron
assay-overview: growth AUC relative to DMSO control (median of replicates) (fraction); higher = more growth (less inhibition), active = hit call of the paper;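 active = AUC reduced over 20% with Padj below 0.05 in at least 2 of 3 replicates; inactive = otherwise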
condition-description: 20 µM; 24 h
Classes used: active, inactive

# compound, answer-label
data = [
    ("COCC(=O)N(c1c(C)cccc1C)N1CCOC1=O", "inactive"),
    ("COC(=O)c1ccccc1S(=O)(=O)NC(=O)Nc1nc(C)nc(OC)n1", "inactive"),
    ("O=C1c2ccccc2C(=O)N1SC(Cl)(Cl)Cl", "inactive"),
    ("CCN(CC)c1nc(C)cc(OP(=S)(OC)OC)n1", "inactive"),
    ("Clc1cccc(Cl)c1Cl", "inactive"),
    ("CCOP(=S)(OCC)Oc1ccc2c(C)c(Cl)c(=O)oc2c1", "inactive"),
    ("CC1(C)CN=C(NN=C(/C=C/c2ccc(C(F)(F)F)cc2)/C=C/c2ccc(C(F)(F)F)cc2)NC1", "inactive"),
    ("CC(CCl)OP(=O)(OC(C)CCl)OC(C)CCl (mixture of isomers)", "inactive"),
    ("CCSCCSP(=S)(OC)OC", "inactive"),
    ("C=CCN(CC=C)C(=O)C(Cl)Cl", "inactive"),
    ("CCCOP(=S)(OCCC)SCC(=O)N1CCCCC1C (stereo unspecified)", "inactive"),
    ("CCOC(=O)/C=C(C)/C=C/C[C@@H](C)CCCC(C)C", "inactive"),
    ("COC(=O)C1(O)c2ccccc2-c2ccccc21", "inactive"),
    ("COCc1c(F)c(F)c(COC(=O)C2C(C=C(C)C)C2(C)C)c(F)c1F (stereo unspecified)", "inactive"),
    ("Oc1ccc(Cl)cc1Cc1cc(Cl)ccc1O", "active"),
    ("Clc1cc(Cl)nc(-c2ccccc2)n1", "inactive"),
    ("COC(=O)/C(C)=C/OP(=S)(OC)OC", "inactive"),
    ("CN(C)C(=S)SSC(=S)N(C)C", "active"),
    ("CC1COC(Cn2cncn2)(c2ccc(Oc3ccc(Cl)cc3)cc2Cl)O1 (stereo unspecified)", "inactive"),
    ("O=C(O)COc1nc(Cl)c(Cl)cc1Cl", "inactive"),
    ("CCNc1nc(NC(C)C(C)C)nc(SC)n1 (stereo unspecified)", "inactive"),
    ("c1cc2c3c(cccc3c1)CC2", "inactive"),
    ("CCOC(=O)C(O)(c1ccc(Cl)cc1)c1ccc(Cl)cc1", "inactive"),
    ("COc1ncc(F)c2nc(S(=O)(=O)Nc3c(F)cccc3F)nn12", "inactive"),
    ("CCCOC(=O)c1ccccc1C(=O)OCCC", "inactive"),
    ("ClC1=C(Cl)[C@]2(Cl)[C@@H]3[C@@H]4C[C@@H]([C@H]5O[C@@H]45)[C@@H]3[C@@]1(Cl)C2(Cl)Cl", "inactive"),
    ("C=CCC1=C(C)C(OC(=O)C2C(C=C(C)C)C2(C)C)CC1=O (stereo unspecified)", "inactive"),
    ("CCOP(=O)(OCC)OCC", "inactive"),
    ("CCOP(=O)(SC(C)CC)SC(C)CC (stereo unspecified)", "inactive"),
    ("CCc1cnc(C2=NC(C)(C(C)C)C(=O)N2)c(C(=O)O)c1 (stereo unspecified)", "inactive"),
    ("C1=Cc2cccc3cccc1c23", "inactive"),
    ("CCC(C)c1cc([N+](=O)[O-])cc([N+](=O)[O-])c1O (stereo unspecified)", "inactive"),
    ("CCCCC(C#N)(Cn1cncn1)c1ccc(Cl)cc1 (stereo unspecified)", "inactive"),
    ("Clc1nc(Cl)nc(Nc2ccccc2Cl)n1", "inactive"),
    ("COS(=O)(=O)[O-].Cn1c(-c2ccccc2)cc(-c2ccccc2)[n+]1C", "inactive"),
    ("C[C@@H]1C[C@@H]([C@H](O)CC2CC(=O)NC(=O)C2)C(=O)[C@@H](C)C1", "inactive"),
    ("ClC1=C(Cl)C2(Cl)[C@H]3[C@@H]4O[C@@H]4[C@H](Cl)[C@H]3C1(Cl)C2(Cl)Cl (single isomer, unassigned; isomer b)", "inactive"),
    ("COP(=O)(OC)OC(Br)C(Cl)(Cl)Br (stereo unspecified)", "inactive"),
    ("O=C(O)CCCOc1ccc(Cl)cc1Cl", "inactive"),
    ("ClC1=C(Cl)C2(Cl)C3C(Cl)C=CC3C1(Cl)C2(Cl)Cl (stereo unspecified)", "inactive"),
    ("Cc1ccccc1CO[C@@H]1C[C@@]2(C(C)C)CC[C@]1(C)O2 (mixture of isomers)", "inactive"),
    ("CCCC(Cn1cncn1)c1ccc(Cl)cc1Cl (stereo unspecified)", "inactive"),
    ("CC(C)(C)C(=O)C(Oc1ccc(Cl)cc1)n1cncn1 (stereo unspecified)", "inactive"),
    ("c1coc(-c2nc3ccccc3[nH]2)c1", "inactive"),
    ("CNC(=O)Oc1cc(C)c(S(C)=O)c(C)c1 (stereo unspecified)", "inactive"),
    ("O=C(O)c1ccccc1C(=O)Nc1cccc2ccccc12", "inactive"),
]
